target: human SLC5A8 (Homo sapiens, UniProt Q8N695, F251V/V193I); construct: We amplified the coding region of SLC5A8 mRNA by RT-PCR using human intestinal mRNA as the template; expressed in transfected cells; host or cells: Xenopus laevis oocytes, 50 ng capped cRNA from the pGH19 construct; experiment: Two-microelectrode voltage clamp of substrate-induced currents in SLC5A8-expressing oocytes; assay type: cell-based; conditions: 5 mM; -50 mV
Sequence (Q8N695 whole entry V193I/F251V): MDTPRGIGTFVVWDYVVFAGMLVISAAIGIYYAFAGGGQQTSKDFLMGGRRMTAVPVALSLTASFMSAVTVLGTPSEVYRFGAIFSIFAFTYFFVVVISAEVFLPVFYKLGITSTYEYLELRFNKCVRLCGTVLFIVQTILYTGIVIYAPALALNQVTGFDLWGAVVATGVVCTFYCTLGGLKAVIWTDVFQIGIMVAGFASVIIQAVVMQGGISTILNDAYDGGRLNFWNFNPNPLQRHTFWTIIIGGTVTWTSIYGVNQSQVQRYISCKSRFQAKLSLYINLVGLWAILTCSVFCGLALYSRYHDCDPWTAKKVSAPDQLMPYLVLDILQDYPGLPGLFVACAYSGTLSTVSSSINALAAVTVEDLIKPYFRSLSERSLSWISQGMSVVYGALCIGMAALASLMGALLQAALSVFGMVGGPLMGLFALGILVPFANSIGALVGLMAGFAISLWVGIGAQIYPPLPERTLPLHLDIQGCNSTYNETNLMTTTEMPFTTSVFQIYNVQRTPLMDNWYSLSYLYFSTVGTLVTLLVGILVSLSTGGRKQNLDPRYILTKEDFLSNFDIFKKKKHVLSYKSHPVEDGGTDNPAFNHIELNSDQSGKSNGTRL
value type: Relative magnitude of substrate-induced currents

- molecule: "CC(=O)O [acetate]"
  measured: "intermediate"
- molecule: "CCCCC(=O)O [pentanoate]"
  measured: "intermediate"

====

Target: human SLC5A8 (Homo sapiens, UniProt Q8N695, F251V/V193I)
Construct: We amplified the coding region of SLC5A8 mRNA by RT-PCR using human intestinal mRNA as the template; expressed in transfected cells; host or cells: Xenopus laevis oocytes, 50 ng capped cRNA from the pGH19 construct
Experiment: Uptake of radiolabeled short-chain fatty acids in Xenopus oocytes injected with SLC5A8 cRNA
Assay type: cell-based
Design: unit not given here
Settings: uninjected control oocytes; 1 h incubation
Method: The amplified human SLC5A8 cDNA was expressed heterologously in Xenopus oocytes by cRNA injection. Capped cRNA from SLC5A8 cDNA was synthesized using the mMESSAGE mMACHINE kit (Ambion Inc., Austin, Tex.). Mature oocytes (stage 1V or V) from Xenopus laevis were injected with 50 ng cRNA. Uninjected oocytes served as controls. […] Uptake of radiolabeled substrates in uninjected and cRNA-injected oocytes was determined as described previously (Fei, Y. J., et al., (1995) Biochemistry 34, 8744-8751). […]
value type: Uptake, uninjected oocytes
Give bare numbers.

Some solved entries appear below for comparison.
- compound: "CCC(=O)O [propionate]"
  Uptake, uninjected oocytes: 0.016
- compound: "C[C@@H](O)C(=O)O [D-lactate]"
  Uptake, uninjected oocytes: 0.028
- compound: "CC(=O)O [acetate]"
  Uptake, uninjected oocytes: 0.032

Now look at this entry.
Prompt line: # input compound: C[C@H](O)C(=O)O [L-lactate] ; wanted: its Uptake, uninjected oocytes
Response line: 0.009

====

molecular target: human SLC5A8 (Homo sapiens, UniProt Q8N695, F251V/V193I); construct: We amplified the coding region of SLC5A8 mRNA by RT-PCR using human intestinal mRNA as the template; expressed in transfected cells; host or cells: Xenopus laevis oocytes, 50 ng capped cRNA from the pGH19 construct; assay: Uptake of radiolabeled short-chain fatty acids in Xenopus oocytes injected with SLC5A8 cRNA; assay type: cell-based; details: SLC5A8 cRNA-injected oocytes; 1 h incubation
Field: Uptake, cRNA-injected oocytes. Provide a value for each of the compounds that follow.
Answers are plain numbers.

Some solved entries appear below for comparison.
- compound: "CC(=O)O [acetate]"
  Uptake, cRNA-injected oocytes: 0.059
- compound: "C[C@@H](O)C(=O)O [D-lactate]"
  Uptake, cRNA-injected oocytes: 1.090
- compound: "CCC(=O)O [propionate]"
  Uptake, cRNA-injected oocytes: 0.255

Prompt line: Given the entry C[C@H](O)C(=O)O [L-lactate] , what Uptake, cRNA-injected oocytes was observed with human SLC5A8 (Homo sapiens, UniProt Q8N695, F251V/V193I)?
Response line: 0.402

====

Target: rat ATB^0,+ (Rattus norvegicus, UniProt Q334I2)
Sequence (Q334I2 1-640): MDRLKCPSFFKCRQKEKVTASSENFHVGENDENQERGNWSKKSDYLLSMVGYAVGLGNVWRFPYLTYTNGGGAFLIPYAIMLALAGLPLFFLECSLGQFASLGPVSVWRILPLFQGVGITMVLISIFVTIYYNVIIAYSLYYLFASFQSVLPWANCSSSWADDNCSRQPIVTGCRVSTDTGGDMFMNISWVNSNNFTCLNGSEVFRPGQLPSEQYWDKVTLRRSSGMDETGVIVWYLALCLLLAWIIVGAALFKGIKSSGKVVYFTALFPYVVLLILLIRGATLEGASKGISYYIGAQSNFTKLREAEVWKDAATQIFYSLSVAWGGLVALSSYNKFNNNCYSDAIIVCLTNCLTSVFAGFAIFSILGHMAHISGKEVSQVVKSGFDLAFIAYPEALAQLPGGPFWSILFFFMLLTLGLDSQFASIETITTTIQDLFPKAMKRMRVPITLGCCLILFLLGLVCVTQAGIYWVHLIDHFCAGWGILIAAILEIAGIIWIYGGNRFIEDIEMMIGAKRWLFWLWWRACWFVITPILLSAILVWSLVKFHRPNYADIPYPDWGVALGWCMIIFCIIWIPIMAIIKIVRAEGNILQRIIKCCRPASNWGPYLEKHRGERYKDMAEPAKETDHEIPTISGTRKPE
Assay: Inhibition of ATB0,+-mediated 3H-glycine uptake in HRPE cells expressing cloned rat ATB0,+
Format: cell-based
Settings: glycine 10 μM; HRPE cells; read-out: IC50 for inhibition of ATB0,+-mediated glycine transport
value type: IC50 (µM)
Numbers only, in µM.

Prompt line: # input compound: `CC(=O)OC[C@H](N)C(=O)O` ; wanted: its IC50
Response line: 423

====

test system: MCF7 cells transfected with SMCT1 cDNA; experiment: Colony formation assay in MCF7 cells transfected with SMCT1 cDNA; format: cell-based, human; settings: Homo sapiens, 336 h; SMCT1-expressing MCF7 cells; two weeks
Field: pIC50. Provide a value for each of the molecules that follow.
Numbers only, as −log10 of the molar value.

- molecule: "CCCC(=O)O [butyrate]"
  measured: 4.43

Now look at this entry.
Prompt line: # input molecule: CC(=O)C(=O)O [pyruvate] ; wanted: its pIC50
Response line: 4.14
